Target: UniProt:Q00975
Sequence (Q00975 whole entry): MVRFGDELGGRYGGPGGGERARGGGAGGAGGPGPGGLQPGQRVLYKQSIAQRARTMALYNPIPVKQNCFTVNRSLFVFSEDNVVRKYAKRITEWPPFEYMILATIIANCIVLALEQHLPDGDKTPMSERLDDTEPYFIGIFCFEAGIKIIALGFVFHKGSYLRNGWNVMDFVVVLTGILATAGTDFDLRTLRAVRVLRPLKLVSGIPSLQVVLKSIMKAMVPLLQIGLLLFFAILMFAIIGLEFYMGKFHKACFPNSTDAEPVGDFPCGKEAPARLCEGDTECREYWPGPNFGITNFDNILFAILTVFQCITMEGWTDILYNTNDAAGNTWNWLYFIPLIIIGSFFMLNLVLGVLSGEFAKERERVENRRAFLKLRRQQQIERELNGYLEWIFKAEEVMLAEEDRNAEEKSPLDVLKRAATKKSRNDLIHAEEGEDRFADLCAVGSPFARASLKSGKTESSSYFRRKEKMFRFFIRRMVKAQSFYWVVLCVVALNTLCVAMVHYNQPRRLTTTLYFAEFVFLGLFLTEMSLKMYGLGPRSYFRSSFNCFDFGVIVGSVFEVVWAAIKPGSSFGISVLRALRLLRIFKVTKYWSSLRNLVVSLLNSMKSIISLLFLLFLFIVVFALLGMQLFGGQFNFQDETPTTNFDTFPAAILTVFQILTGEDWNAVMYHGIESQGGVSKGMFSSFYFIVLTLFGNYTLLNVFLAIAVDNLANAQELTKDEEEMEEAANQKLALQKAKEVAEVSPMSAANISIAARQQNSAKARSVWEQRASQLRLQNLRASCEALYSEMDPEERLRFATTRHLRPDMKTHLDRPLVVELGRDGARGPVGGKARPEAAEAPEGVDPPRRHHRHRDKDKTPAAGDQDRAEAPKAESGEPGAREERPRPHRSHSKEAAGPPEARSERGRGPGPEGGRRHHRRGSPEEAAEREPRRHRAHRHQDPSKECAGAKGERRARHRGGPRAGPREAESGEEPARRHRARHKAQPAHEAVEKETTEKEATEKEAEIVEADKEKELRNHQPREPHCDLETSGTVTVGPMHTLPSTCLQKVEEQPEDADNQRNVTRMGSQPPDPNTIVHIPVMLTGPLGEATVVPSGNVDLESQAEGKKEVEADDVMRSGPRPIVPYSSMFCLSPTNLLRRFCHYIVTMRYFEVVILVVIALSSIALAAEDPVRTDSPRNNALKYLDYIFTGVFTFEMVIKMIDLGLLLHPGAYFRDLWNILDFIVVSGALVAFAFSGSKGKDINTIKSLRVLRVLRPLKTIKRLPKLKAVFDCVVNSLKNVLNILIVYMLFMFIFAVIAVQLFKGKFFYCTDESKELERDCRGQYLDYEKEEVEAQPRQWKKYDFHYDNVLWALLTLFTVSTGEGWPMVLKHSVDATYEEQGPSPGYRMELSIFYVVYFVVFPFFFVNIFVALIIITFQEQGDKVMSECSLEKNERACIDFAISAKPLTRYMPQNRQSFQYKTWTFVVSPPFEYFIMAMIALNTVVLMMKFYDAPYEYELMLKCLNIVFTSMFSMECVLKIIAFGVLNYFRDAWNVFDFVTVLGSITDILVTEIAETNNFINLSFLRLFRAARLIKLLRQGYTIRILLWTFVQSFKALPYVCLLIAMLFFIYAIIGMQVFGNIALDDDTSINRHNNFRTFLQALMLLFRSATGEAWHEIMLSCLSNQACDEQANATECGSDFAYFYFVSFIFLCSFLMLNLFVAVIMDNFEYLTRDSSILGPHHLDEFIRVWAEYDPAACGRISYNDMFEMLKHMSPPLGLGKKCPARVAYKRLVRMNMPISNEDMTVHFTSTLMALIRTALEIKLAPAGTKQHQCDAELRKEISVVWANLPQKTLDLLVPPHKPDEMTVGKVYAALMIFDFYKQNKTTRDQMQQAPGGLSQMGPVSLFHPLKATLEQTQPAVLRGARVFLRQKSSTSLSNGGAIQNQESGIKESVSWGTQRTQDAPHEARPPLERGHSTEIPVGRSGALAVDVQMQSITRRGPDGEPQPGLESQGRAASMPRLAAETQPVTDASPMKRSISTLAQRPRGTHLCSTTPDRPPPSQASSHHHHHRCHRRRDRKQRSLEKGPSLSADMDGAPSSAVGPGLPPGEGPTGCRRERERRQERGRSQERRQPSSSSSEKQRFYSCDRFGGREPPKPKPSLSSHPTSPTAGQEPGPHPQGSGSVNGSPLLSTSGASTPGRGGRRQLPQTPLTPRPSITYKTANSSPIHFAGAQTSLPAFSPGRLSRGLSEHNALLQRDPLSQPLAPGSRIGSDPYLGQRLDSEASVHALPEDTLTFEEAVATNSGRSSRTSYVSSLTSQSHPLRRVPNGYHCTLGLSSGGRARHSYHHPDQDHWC
Sequence (P54284 whole entry partner): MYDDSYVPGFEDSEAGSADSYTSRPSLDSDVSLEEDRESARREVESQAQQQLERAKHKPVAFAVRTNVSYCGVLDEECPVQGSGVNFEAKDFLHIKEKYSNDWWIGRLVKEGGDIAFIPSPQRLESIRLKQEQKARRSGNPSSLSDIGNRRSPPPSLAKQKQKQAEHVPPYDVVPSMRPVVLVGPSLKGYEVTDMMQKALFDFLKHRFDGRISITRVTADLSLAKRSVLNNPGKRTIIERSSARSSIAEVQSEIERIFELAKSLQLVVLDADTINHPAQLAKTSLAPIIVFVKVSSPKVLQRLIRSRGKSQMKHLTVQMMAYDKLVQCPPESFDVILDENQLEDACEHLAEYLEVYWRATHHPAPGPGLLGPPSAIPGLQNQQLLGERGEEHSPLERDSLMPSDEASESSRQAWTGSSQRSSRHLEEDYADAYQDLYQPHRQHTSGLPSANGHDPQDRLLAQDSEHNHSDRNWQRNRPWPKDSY
Sequence (P54289 25-956 partner limits assumed): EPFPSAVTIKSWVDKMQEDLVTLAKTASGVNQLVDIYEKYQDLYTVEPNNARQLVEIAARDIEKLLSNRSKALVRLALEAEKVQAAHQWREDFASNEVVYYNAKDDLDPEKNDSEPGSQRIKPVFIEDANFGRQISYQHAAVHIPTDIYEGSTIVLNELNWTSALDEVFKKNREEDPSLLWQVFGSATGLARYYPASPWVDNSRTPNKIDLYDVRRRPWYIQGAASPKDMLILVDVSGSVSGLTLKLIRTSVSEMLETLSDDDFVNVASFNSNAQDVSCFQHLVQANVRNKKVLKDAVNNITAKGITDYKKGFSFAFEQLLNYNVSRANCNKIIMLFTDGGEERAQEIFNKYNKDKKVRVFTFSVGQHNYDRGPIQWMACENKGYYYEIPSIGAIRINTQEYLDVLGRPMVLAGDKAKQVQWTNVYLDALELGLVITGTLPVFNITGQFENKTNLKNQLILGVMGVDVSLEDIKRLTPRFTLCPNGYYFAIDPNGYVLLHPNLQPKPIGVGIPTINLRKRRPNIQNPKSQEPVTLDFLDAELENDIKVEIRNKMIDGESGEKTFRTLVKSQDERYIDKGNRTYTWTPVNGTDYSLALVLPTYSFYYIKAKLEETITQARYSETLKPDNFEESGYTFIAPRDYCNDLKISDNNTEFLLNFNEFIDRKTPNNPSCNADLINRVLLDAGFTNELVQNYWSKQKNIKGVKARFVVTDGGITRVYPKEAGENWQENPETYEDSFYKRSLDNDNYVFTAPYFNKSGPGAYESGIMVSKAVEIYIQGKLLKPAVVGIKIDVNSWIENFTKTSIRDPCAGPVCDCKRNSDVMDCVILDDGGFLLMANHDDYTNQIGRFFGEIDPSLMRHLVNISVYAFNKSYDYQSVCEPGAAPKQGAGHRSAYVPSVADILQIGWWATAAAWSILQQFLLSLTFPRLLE
Sequence (P54289 957-1103 partner limits assumed): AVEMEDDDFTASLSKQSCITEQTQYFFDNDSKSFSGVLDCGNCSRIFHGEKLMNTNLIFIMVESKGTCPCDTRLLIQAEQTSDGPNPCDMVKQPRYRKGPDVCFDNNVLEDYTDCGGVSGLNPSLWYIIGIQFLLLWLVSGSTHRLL
Assay: Calcium influx assay (FDSS), KCl depolarization, Fluo8 dye
Assay type: cell-based
Design: host or cells: HEK 293
Settings: HEK 293 cells expressing human N-type Ca channel; 100 mM KCl; read-out: N Type IC50 Data FDSS
Procedure: All cell culture reagents were procured from HyClone and other reagents were from Fisher. Recombinant HEK 293 cells expressing human N-type Ca channel (Millipore) were maintained in DMEM F12 containing 10% FBS and selection antibiotics at 37 °C in 5% CO2. Cells were incubated at 30 °C in 5% CO2 overnight. The medium was removed and cells were loaded with Fluo8 dye (AAT Bioquest) at 37 °C and 30 °C, 30 min each in darkness. […] Cells were depolarized with 100 mM KCl and Ca influx was measured.
measuredEndpoint: IC50 (nM)

Examples with their reported IC50 follow.
molecule	assayTarget	uom	experimentalValue
COc1ccccc1-c1nc(C2CC(C)(C)OC(C)(C)C2)cn1-c1ccc(Cl)c(F)c1	UniProt:Q00975	nM	131
CCOc1ncccc1-c1nc(C2CC(C)(C)OC(C)(C)C2)cn1-c1ccc(Cl)cc1	UniProt:Q00975	nM	29

(P) COc1cnccc1-c1nc(C2(O)CC(C)(C)OC(C)(C)C2)cn1-c1ccc(Cl)cc1
(Q) COc1cccnc1-c1nc(C2CC(C)(C)OC(C)(C)C2)cn1-c1ccc(Cl)cc1
(R) COc1ncccc1-c1nc(C2CC(C)(C)OC(C)(C)C2)cn1Cc1ccc(Cl)cc1
(S) CC1(C)CC(c2cn(-c3ccc(Cl)cc3)c(-c3ccc[nH]c3=O)n2)CC(C)(C)O1
Ascending sort, IC50. // respond by listing labels in the order requested
P, Q, R, S

(P) COc1ncccc1-c1nc(C2CC(C)(C)OC(C)(C)C2)c(Cl)n1-c1ccc(F)cc1
(Q) COc1ncccc1-c1nc(C2(O)CC(C)(C)OC(C)(C)C2)cn1-c1ccc(C#N)c(F)c1
Please let me know which one, P or Q , has a lower measured IC50 value. Respond with the label that goes with your answer.
P

(P) COc1ccccc1-c1nc(C2CC(C)(C)OC(C)(C)C2)cn1Cc1cncnc1
(Q) COc1ccccc1-c1nc(C2CC(C)(C)OC(C)(C)C2)cn1S(=O)(=O)c1ccc(F)cc1
Please let me know which one, P or Q , has a lower measured IC50 value. Respond with the label that goes with your answer.
Q
(Q: 692 nM, P: 10000 nM)
